Source listed as a melting point compilation (Tetko et al.).

Each record here notes measured melting point.

Consider the following illustrative entries.
Compound	Observation type	Recorded value
Nc1sc2c(c1C(=O)c1ccc(F)cc1)CCC2	melting point	139 to 141 °C
CCCCOc1ccc2cc(C(=O)O)[nH]c2c1	melting point	173 to 175 °C

Output measured melting point for this item: O=C(O)c1cccc(N2CC=CC2)c1 193 to 195 °C

###

Each record here notes measured melting point.

Compound	Observation type	Recorded value
O=C(O)c1ccccc1NS(=O)(=O)c1cccc([N+](=O)[O-])c1	melting point	185 to 187 °C

Output measured melting point for this item: Cc1ccc(C(=O)NN)c(O)c1 173 to 175 °C

Output measured melting point for this item: CC(N)(C(N)=O)c1ccccc1 (stereo not drawn) 114 to 116 °C

Output measured melting point for this item: COc1ccc(Cl)cc1-c1cc(N)[nH]n1 126 to 128 °C

Output measured melting point for this item: CCOC(C)c1nc(C)c(C(=O)O)s1 (stereo not drawn) 112 to 114 °C

Output measured melting point for this item: Nc1nnc(-c2c(F)cccc2Cl)o1 152 to 154 °C

Output measured melting point for this item: COC(C)(C)C(N)=NO 104 to 106 °C

Output measured melting point for this item: O=C(O)CN1C(=O)c2cc(Cl)c(Cl)cc2C1=O 309 to 311 °C

Output measured melting point for this item: O=Cc1c[nH]nc1-c1ccc(Cl)cc1 139 to 141 °C

###

Observation type: melting point

Consider the following illustrative entries.
Compound	Observation type	Recorded value
O=C(O)C1CCCN(C2=NS(=O)(=O)c3ccccc32)C1 (stereo not given)	melting point	205 to 207 °C
c1cc2n(n1)CCCN2	melting point	99 to 101 °C
O=C(O)C(Oc1cccc(F)c1)c1ccccc1 (stereo not given)	melting point	108 to 110 °C
O=C(Nc1cc(F)ccc1C(=O)O)c1cccc(Br)c1	melting point	217 to 219 °C
CC1CC(C)(C)NC1=O (stereo not given)	melting point	77 to 79 °C

Output measured melting point for this item: O=C(O)CCc1nc2ccccc2n1-c1ccccc1 232 to 234 °C

Output measured melting point for this item: Cc1ccc(C(=O)c2ccccc2C(=O)O)cc1C 166 to 168 °C

Output measured melting point for this item: CC1CCC(C(C)C)C(OC(=O)CO)C1 (stereo not given) 85 to 87 °C

Output measured melting point for this item: O=C(O)CCc1ccc(O)c(Cl)c1 84 to 86 °C

Output measured melting point for this item: Cc1[nH]c2ccc(C#N)cc2c1C 145 to 147 °C

###

Each record here notes measured melting point.

Consider the following illustrative entries.
Compound	Observation type	Recorded value
CCOC(=O)c1c(NC(=O)CCl)sc(C(=O)OC(C)(C)C)c1C	melting point	168 to 170 °C
Cn1ccc(C(=O)NCCC(=O)O)cc1=O	melting point	214 to 216 °C

Output measured melting point for this item: CCc1cc(Cl)n2nc(C(=O)OC)nc2n1 179 to 181 °C

Output measured melting point for this item: COc1nc(N2CCNCC2)ncc1Br 89 to 91 °C

Output measured melting point for this item: O=C(O)C(Cc1c[nH]c2ccccc12)NS(=O)(=O)c1ccc(Cl)c(C(F)(F)F)c1 (stereo unspecified) 185 to 187 °C

Output measured melting point for this item: Nc1cccc(S(=O)(=O)NC2=NCCC2)c1 166 to 168 °C

###

Each record here notes measured melting point.

Molecule	Recorded value
CC(O)c1ccc(S(=O)(=O)Nc2ccc(C(=O)O)cc2)cc1 (stereo not drawn)	199 to 201 °C

Output measured melting point for this item: O=C(CCl)NC(=O)NCc1ccco1 128 to 130 °C

Output measured melting point for this item: Nc1nc(-c2ccc([N+](=O)[O-])cc2)n[nH]1 278 to 280 °C

Output measured melting point for this item: C=CC(=O)Nc1ccc(OCC)c(CO)c1 129 to 131 °C

Output measured melting point for this item: COC(=O)C(C)Cn1cc(Br)cn1 (stereo not drawn) 43 to 45 °C

Output measured melting point for this item: O=C(O)c1cn2cccnc2n1 255 to 257 °C

Output measured melting point for this item: Nc1nnc(CCCc2ccccc2)o1 165 to 167 °C

Output measured melting point for this item: NS(=O)(=O)c1ccc(C(=O)O)s1 229 to 231 °C

Output measured melting point for this item: Cc1cc([N+](=O)[O-])sc1Br 37 to 39 °C

###

Observation type: melting point

Consider the following illustrative entries.
Compound	melting point
CCCC=C(C#N)C(=O)O	96 to 98 °C
Nc1ccc(OCc2ccccn2)c(F)c1	67 to 69 °C
Cc1c(NC(=O)CSc2ccccc2C(=O)O)c(=O)n(-c2ccccc2)n1C	120 to 123 °C

Output measured melting point for this item: COc1ccc(C(=O)CC(C)(C)C(=O)O)cc1 166 to 168 °C

Output measured melting point for this item: CCCCS(N)(=O)=O 43 to 45 °C

Output measured melting point for this item: Sc1nccn1Cc1ccccn1 173 to 175 °C

Output measured melting point for this item: CCNc1ccc(C#N)c(Cl)c1 69 to 71 °C

Output measured melting point for this item: O=[N+]([O-])c1c(NC2CC2)cccc1NC1CC1 116 to 118 °C

Output measured melting point for this item: O=C(O)c1cc2cc(F)ccc2s1 207 to 209 °C

Output measured melting point for this item: CCN(CC)C(=O)N1CCCC(C(=O)O)C1 (stereo not drawn) 94 to 96 °C

###

Each record here notes measured melting point.

Consider the following illustrative entries.
Compound	melting point
CCOC(=O)c1c(-c2ccc(OC)c(OC)c2)csc1N	223 to 225 °C
CC1CN(C(=O)c2ccc(N)cc2)CC(C)O1 (centres undefined)	174 to 176 °C

Output measured melting point for this item: CN(C)C(C#N)c1cc[nH]c1 (centres undefined) 71 to 73 °C

Output measured melting point for this item: O=Cc1c(-c2ccccc2)nc2sccn12 128 to 130 °C

###

Each record here notes measured melting point.

Consider the following illustrative entries.
Compound	Observation type	Recorded value
C=CCNC(=O)c1cccc(S(=O)(=O)Cl)c1	melting point	62 to 64 °C
CNCc1cn(C)c(=O)n(C)c1=O	melting point	128 to 130 °C
Cn1ncc2ccc(C#N)cc21	melting point	104 to 106 °C
Cc1cc(C)nc(-n2nccc2N)n1	melting point	183 to 185 °C
Clc1nc(-c2ccccc2)ns1	melting point	51 to 53 °C

Output measured melting point for this item: CNC(=O)c1ccc(Cl)nn1 170 to 172 °C

Output measured melting point for this item: COc1ccccc1CNC(=O)CCl 94 to 96 °C

Output measured melting point for this item: Cc1ccc(N)cc1S(=O)(=O)Nc1ccc(SC(F)F)cc1 227 to 230 °C

Output measured melting point for this item: O=C(NC1CC1)c1ccc(Br)cc1F 111 to 113 °C

Output measured melting point for this item: CS(=O)(=O)CC(=O)c1ccccc1 106 to 108 °C

Output measured melting point for this item: CC1=NOC(=O)C1CC(=O)O (stereo unspecified) 149 to 151 °C

Output measured melting point for this item: CC(C)(O[Si](C)(C)C)C(N)=O 29 to 31 °C

Output measured melting point for this item: Cc1noc(-c2cccnc2Cl)n1 65 to 67 °C

Output measured melting point for this item: NCc1ccc(N2CCNCC2)cc1 163 to 165 °C

###

Observation type: melting point

Compound	melting point
CS(=O)(=O)Nc1ccc(C(=O)CCl)cc1	155 to 158 °C
COCCNC(=O)NC(=O)CCl	103 to 105 °C

Output measured melting point for this item: N#CC(C(=O)CCl)c1nc(-c2ccccc2)cs1 (stereo not given) 215 to 217 °C

###

Observation type: melting point

Compound	melting point
O=C(CCl)Nc1ccc(NC(=O)c2cccs2)cc1	243 to 245 °C

Output measured melting point for this item: Cc1cc(F)ccc1NC(=O)C=NO 132 to 134 °C

Output measured melting point for this item: NNS(=O)(=O)Cc1ccccc1 131 to 133 °C

###

Each record here notes measured melting point.

Consider the following illustrative entries.
Molecule	Observation type	Recorded value
Nc1ccccc1C(=O)Nc1cccc(Cl)c1	melting point	131 to 135 °C
O=Cc1cc(Br)c2c(c1)OCCO2	melting point	99 to 101 °C
Cc1ccc(-c2nc3ccccc3[nH]2)s1	melting point	259 to 261 °C

With those in mind, consider the next molecule.
Output measured melting point for this item: Brc1ccccc1Cc1nn[nH]n1 135 to 137 °C

###

Each record here notes measured melting point.

Consider the following illustrative entries.
Compound	Recorded value
Nc1sc2c(c1C(=O)NCc1ccccc1)CCCC2	112 to 114 °C
COc1ccc2c(c1)NC(=O)C(C)O2 (configuration not stated)	138 to 140 °C
COc1ccc(CC(N)=NO)cc1OC	135 to 137 °C
CC(N)c1ccc(-c2ccncc2)cc1 (configuration not stated)	87 to 89 °C
Cn1cccc1C(=O)NC(=O)CCl	139 to 141 °C
O=C(O)C(Oc1ccc(Cl)cc1Br)c1ccccc1 (configuration not stated)	135 to 137 °C
N#Cc1cccc(-c2cscn2)c1	111 to 113 °C
Oc1ccccc1CNc1ccc(F)cc1	103 to 105 °C

Output measured melting point for this item: COC(=O)c1ccc2[nH]c(=O)[nH]c2c1 303 to 305 °C

Output measured melting point for this item: NNC(=S)NCc1ccc(F)cc1 140 to 142 °C

Output measured melting point for this item: NC(=NO)c1ccc2c(c1)CCO2 215 to 217 °C

Output measured melting point for this item: NC(=O)N1CCCC1C(=O)O (configuration not stated) 205 to 207 °C

Output measured melting point for this item: COc1cc(Br)ccc1C#N 135 to 137 °C

Output measured melting point for this item: NC(=O)N1CCOCC1 106 to 108 °C
